- test: Half life at pH 6.4
- Type: ADME
- condition.set: buffer
assay.readout: half-life (min)
Give bare numbers, in min.

// each listed compound needs a value for half-life
1. COc1ccc(C(Nc2nc(N)nc3c2ncn3[C@@H]2O[C@H](CO)[C@@H](O)C2(F)F)(c2ccccc2)c2ccc(C(=O)NC(C)C)cc2)cc1 (stereo partly drawn)
2. COc1ccc(C(Nc2nc(N)nc3c2ncn3[C@@H]2O[C@H](CO)[C@@H](O)C2(F)F)(c2ccc(OC)cc2)c2ccc(C(=O)NC(C)C)cc2)cc1
3. COc1ccc(C(Nc2nc(N)nc3c2ncn3[C@@H]2O[C@H](CO)[C@@H](O)C2(F)F)(c2ccc(OC)cc2)c2cccc(C(=O)NC(C)C)c2)cc1

1. 32800
2. 888
3. 1400

====

- test: Half life at pH 5.4
- Format: ADME
- condition.set: buffer
assay.readout: half-life (h)
Numbers only, in h.

These solved cases illustrate the format of a correct answer.
[[record]]
molecule = "COc1ccc(C(Nc2nc(N)nc3c2ncn3[C@@H]2O[C@H](CO)[C@@H](O)C2(F)F)(c2ccc(OC)cc2)c2cccc(C(=O)NC(C)C)c2)cc1"
assay_readout = "half-life"
reading = 2.35

[[record]]
molecule = "COc1ccc(C(Nc2nc(N)nc3c2ncn3[C@@H]2O[C@H](CO)[C@@H](O)C2(F)F)(c2ccc(OC)cc2)c2ccc(C(=O)NC(C)C)cc2)cc1"
assay_readout = "half-life"
reading = 3.71


# ---- query molecule ----
Entry COc1ccc(C(Nc2nc(N)nc3c2ncn3[C@@H]2O[C@H](CO)[C@@H](O)C2(F)F)(c2ccccc2)c2ccc(C(=O)NC(C)C)cc2)cc1 (stereo partly drawn) has what half-life?
16.7

====

For each of the molecules below, state its half-life.
- test: Half life at pH 7.4
- Assay type: ADME
- condition.set: buffer
Answers are plain numbers, in h.

[[record]]
molecule = "COc1ccc(C(Nc2nc(N)nc3c2ncn3[C@@H]2O[C@H](CO)[C@@H](O)C2(F)F)(c2ccccc2)c2ccc(C(=O)NC(C)C)cc2)cc1 (stereo partly drawn)"
value_unit = "h"
reading = 800

[[record]]
molecule = "COc1ccc(C(Nc2nc(N)nc3c2ncn3[C@@H]2O[C@H](CO)[C@@H](O)C2(F)F)(c2ccc(OC)cc2)c2cccc(C(=O)NC(C)C)c2)cc1"
value_unit = "h"
reading = 133


Would you mind telling me what half-life value was observed for COc1ccc(C(Nc2nc(N)nc3c2ncn3[C@@H]2O[C@H](CO)[C@@H](O)C2(F)F)(c2ccc(OC)cc2)c2ccc(C(=O)NC(C)C)cc2)cc1 ?
146
